assay: Stability and biodistribution of prodrugs in vivo (HPLC of plasma and tissues); set-up: species or system mice (CD-1 nude; BALB/C where indicated); settings: SMALL INTESTINE, 30 min, 50 mg/kg i.p. or i.v., CD-1 nude mice
Mark Yes only when concentration of prodrug in small intestine stays strictly below 200 nmol/g. Values equal to the cut-off are No.

>  <compound>
CN(Cc1cnc2nc(N)nc(N)c2n1)c1ccc(C(=O)N[C@@H](CCC(=O)O)C(=O)N[C@@H](Cc2cccc(C3CCC3)c2)C(=O)O)cc1 [Prodrug 11]

>  <discrete-label>
No

$$$$
>  <compound>
CN(Cc1cnc2nc(N)nc(N)c2n1)c1ccc(C(=O)N[C@@H](CCC(=O)O)C(=O)N[C@@H](CC(=O)O)C(=O)O)cc1 [Prodrug 6]

>  <discrete-label>
Yes

$$$$
>  <compound>
CN(Cc1cnc2nc(N)nc(N)c2n1)c1ccc(C(=O)N[C@@H](CCC(=O)O)C(=O)N[C@@H](Cc2ccccc2C2CCCC2)C(=O)O)cc1 [Prodrug 8]

>  <discrete-label>
No

$$$$
>  <compound>
Cc1nc2ccc3ccc(CNc4ccc(C(=O)N[C@@H](CCC(=O)O)C(=O)N[C@@H](Cc5cccc6ccccc56)C(=O)O)c(F)c4)cc3c2c(=O)[nH]1 [Prodrug 3]

>  <discrete-label>
Yes

$$$$

INPUT: For this compound, is concentration of prodrug in small intestine lower than 200 nmol/g? Cc1nc2ccc3ccc(CNc4ccc5c(c4)CN([C@@H](CCC(=O)O)C(=O)N[C@@H](Cc4ccccc4)C(=O)O)C5=O)cc3c2c(=O)[nH]1 [Prodrug 2]
OUTPUT: Yes

INPUT: For this compound, is concentration of prodrug in small intestine lower than 200 nmol/g? CN(Cc1cnc2nc(N)nc(N)c2n1)c1ccc(C(=O)N[C@@H](CCC(=O)O)C(=O)N[C@@H](Cc2cccc(C(C)(C)C)c2)C(=O)O)cc1 [Prodrug 12]
OUTPUT: No

// provenance: patent US6319702A
